Let's go through some recorded Kd values for UniProtKB P42345 together.

Please review the entries below; each comes with its answer.
compound	system-under-test	Kd
CC(Nc1cc(F)cc(F)c1)c1cc(C(=O)NC[C@@H](C)O)cc2ncc(N3CCOCC3)nc12 (single isomer, unassigned)	UniProtKB P42345	16.5 µM
CC(C)NCCNC(=O)c1cc(C(C)Oc2ccc(F)c(F)c2)c2nc(N3CCOCC3)cnc2c1 (racemic) [Compound 286]	UniProtKB P42345	> 30.2 µM

Kindly consider the entry below.
Provide Kd value for the following compound: CC(Nc1ccc(F)c(F)c1)c1cc(C(=O)NCC(C)(C)O)cc2ncc(N3CCOCC3)nc12 (single isomer, unassigned) [Compound 348a]
> 30.2 µM

###

system-under-test: PI3Kβ (Homo sapiens, UniProt P42338)
Construct: purchased DiscoveRx Corporation, San Diego (contract service, KINOMEscan)
Sequence (P42338 whole entry): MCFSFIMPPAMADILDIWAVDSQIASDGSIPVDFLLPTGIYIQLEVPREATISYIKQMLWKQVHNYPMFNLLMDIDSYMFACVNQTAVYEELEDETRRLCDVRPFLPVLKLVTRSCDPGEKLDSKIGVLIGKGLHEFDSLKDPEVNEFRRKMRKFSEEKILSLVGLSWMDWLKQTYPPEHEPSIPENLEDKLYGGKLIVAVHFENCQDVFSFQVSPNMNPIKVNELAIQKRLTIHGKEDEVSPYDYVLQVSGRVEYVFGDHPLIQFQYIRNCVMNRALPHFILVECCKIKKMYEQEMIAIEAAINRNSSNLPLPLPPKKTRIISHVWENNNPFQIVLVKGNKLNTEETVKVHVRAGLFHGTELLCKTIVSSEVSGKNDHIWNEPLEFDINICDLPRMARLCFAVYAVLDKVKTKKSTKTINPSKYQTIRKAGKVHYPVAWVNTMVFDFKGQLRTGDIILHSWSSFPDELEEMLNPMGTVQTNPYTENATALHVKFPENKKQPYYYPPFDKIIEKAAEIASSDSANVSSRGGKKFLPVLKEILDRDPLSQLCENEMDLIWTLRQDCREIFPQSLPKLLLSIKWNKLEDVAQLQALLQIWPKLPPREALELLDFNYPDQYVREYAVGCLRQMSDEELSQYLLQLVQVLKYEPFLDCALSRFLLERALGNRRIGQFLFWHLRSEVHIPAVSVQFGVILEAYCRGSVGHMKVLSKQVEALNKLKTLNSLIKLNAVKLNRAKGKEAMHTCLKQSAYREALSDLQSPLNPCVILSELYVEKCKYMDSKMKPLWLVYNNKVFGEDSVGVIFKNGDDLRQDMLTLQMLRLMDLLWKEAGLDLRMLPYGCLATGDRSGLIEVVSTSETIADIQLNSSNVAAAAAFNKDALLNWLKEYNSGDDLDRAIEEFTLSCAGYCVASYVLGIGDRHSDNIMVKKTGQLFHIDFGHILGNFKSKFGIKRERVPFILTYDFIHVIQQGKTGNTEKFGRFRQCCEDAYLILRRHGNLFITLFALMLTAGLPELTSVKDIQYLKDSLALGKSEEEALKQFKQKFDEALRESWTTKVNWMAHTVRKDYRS
assay-overview: Enzyme binding assay (KINOMEscan, DiscoveRx)
protocol-conditions: PIK3Cβ_h, read-out: Kd PIK3Cβ_h
reported-metric: Kd (nM)
Numbers only, in nM.

Study these solved cases before continuing.
compound	scale-unit	Kd
COC(=O)c1cc(C(C)Nc2cc(F)cc(Cl)c2)c2nc(N3CCOCC3)cnc2c1 (stereo not shown) [Compound 264]	nM	52
Cc1cccc(N(C)C(C)c2cc(C(=O)N(C)C)cc3ncc(N4CCOCC4)nc23)c1 (single isomer, unassigned) [Compound 128]	nM	1120
CN[C@H]1CCN(C(=O)c2cc(C(C)Nc3ccc(F)c(F)c3)c3nc(N4CCOCC4)cnc3c2)C1 (single isomer, unassigned) [Compound 365a]	nM	1
Cc1c(F)cccc1CNc1cc(C(=O)NCCO)cc2ncc(N3CCOCC3)nc12	nM	4
CC(Oc1cc(F)cc(F)c1)c1cc(C(=O)N(C)CCO)cc2ncc(N3CCOCC3)nc12 (single isomer, unassigned) [Compound 60]	nM	490
CN(Cc1cc(F)cc(F)c1)c1cc(C(=O)O)cc2ncc(N3CCOCC3)nc12	nM	407

Continue with the compound presented below.
Identify measured Kd associated with CC(Nc1ccccc1)c1cc(C(=O)N(C)C)cc2ncc(N3CCOCC3)nc12 (stereo not shown)
3

###

For each entry below, report its Kd value.
system-under-test: PI3Kβ (Homo sapiens)
Construct: purchased DiscoveRx Corporation, San Diego (contract service, KINOMEscan)
assay-overview: Enzyme binding assay (KINOMEscan, DiscoveRx)
protocol-conditions: PIK3Cβ_h, read-out: Kd PIK3Cβ_h
Numbers only, in µM.

molecule	val
CC(Oc1cccc(F)c1)c1cc(C(=O)NCCO)cc2ncc(N3CCOCC3)nc12 (single isomer, unassigned) [Compound 334b]	0.457
CC(Nc1ccc(F)c(F)c1)c1cc(C(=O)NCCN(C)C)cc2ncc(N3CCOCC3)nc12 (single isomer, unassigned) [Compound 281b]	0.151
CC(Nc1cc(F)cc(F)c1)c1cc(COCCO)cc2ncc(N3CCOCC3)nc12 (single isomer, unassigned) [Compound 178]	1.1
CC(Oc1cccc(F)c1)c1cc(C(=O)N(C)C)cc2ncc(N3CCOCC3)nc12 (single isomer, unassigned) [Compound 339a]	0.112
CC(Nc1cc(F)c(F)c(F)c1)c1cc(C(=O)NCCN(C)C)cc2ncc(N3CCOCC3)nc12 (single isomer, unassigned) [Compound 309a]	0.0001
CC(C)NCCNC(=O)c1cc(C(C)Oc2ccc(F)c(F)c2)c2nc(N3CCOCC3)cnc2c1 (single isomer, unassigned) [Compound 286a]	0.182

Items follow; give Kd for each.
1. CCN1CCN(C(=O)c2cc(C(C)Nc3cccc(F)c3)c3nc(N4CCOCC4)cnc3c2)CC1 (single isomer, unassigned) [Compound 113]
2. CN(C)C(=O)c1cc(N(C)Cc2cc(F)cc(F)c2)c2nc(N3CCOCC3)cnc2c1 [Compound 358]
3. CC(Nc1ccc(F)c(F)c1)c1cc(C(=O)N2CCC[C@H](O)C2)cc2ncc(N3CCOCC3)nc12 (some centres unmarked) [Compound 302]
4. CN1CCN(C(=O)c2cc(C3CCCN3c3cc(F)cc(F)c3)c3nc(N4CCOCC4)cnc3c2)CC1 (single isomer, unassigned) [Compound 58]
5. CC(Nc1ccc(F)c(F)c1)c1cc(C(=O)N2CCC[C@H](O)C2)cc2ncc(N3CCOCC3)nc12 (single isomer, unassigned) [Compound 302a]

1: 1.02; 2: 0.148; 3: 0.005; 4: 0.009; 5: 1.32

// each molecule listed below needs its Kd
1. CC(Nc1ccc(F)c(F)c1)c1cc(C(=O)NC[C@@H](C)O)cc2ncc(N3CCOCC3)nc12 (single isomer, unassigned) [Compound 346b]
2. CC(Oc1ccc(F)c(F)c1)c1cc(C(=O)N2CCN3CCC[C@H]3C2)cc2ncc(N3CCOCC3)nc12 (single isomer, unassigned) [Compound 369a]
3. C[C@H](Nc1cccc(F)c1)c1cc(C(=O)NCCO)cc2ncc(N3CCOCC3)nc12 [Compound 118]
4. CC(Oc1ccc(F)c(F)c1)c1cc(C(=O)N2CC[C@H](N(C)C)C2)cc2ncc(N3CCOCC3)nc12 (single isomer, unassigned) [Compound 363b]
5. O=C(NCCO)c1cc(NCc2cc(F)cc(F)c2)c2nc(N3CCOCC3)cnc2c1 [Compound 229]

0.741
0.02
0.204
1.29
0.007

Give Kd for each of the items listed below.
1. CC(Nc1cc(F)cc(F)c1)c1cc(C(=O)NC[C@@H](C)O)cc2ncc(N3CCOCC3)nc12 (single isomer, unassigned) [Compound 201]
2. CC(Oc1cc(F)cc(F)c1)c1cc(C(=O)NCCO)cc2ncc(N3CCOCC3)nc12 (single isomer, unassigned) [Compound 199]
3. OCCNCc1cc(C2CCCN2c2cc(F)cc(F)c2)c2nc(N3CCOCC3)cnc2c1 (centres unmarked) [Compound 14]
4. CC(Nc1ccc(F)c(F)c1)c1cc(C(=O)N2CCN3CCC[C@H]3C2)cc2ncc(N3CCOCC3)nc12 (some centres unmarked) [Compound 287]
5. NCc1cc(C2CCCN2c2cc(F)cc(F)c2)c2nc(N3CCOCC3)cnc2c1 (centres unmarked) [Compound 96]
6. CC(Oc1cc(F)cc(F)c1)c1cc(C(=O)N(C)C)cc2ncc(C3=CCOCC3)nc12 (single isomer, unassigned) [Compound 403a]
7. COC1CN(Cc2cc(C(C)Nc3cc(F)cc(F)c3)c3nc(N4CCOCC4)cnc3c2)CC1OC (single isomer, unassigned) [Compound 207]

1: 0.002; 2: 0.068; 3: 0.0002; 4: 0.013; 5: 0.0004; 6: 0.003; 7: 0.006

Hi! Can you tell me Kd for each of these molecules?
1. CCN1CCN(C(=O)c2cc(C(C)Nc3cc(F)cc(F)c3)c3nc(N4CCOCC4)cnc3c2)CC1 (centres unmarked) [Compound 143]
2. CC(Oc1cc(F)cc(F)c1)c1cc(C(=O)N(C)C)cc2ncc(N3CCOCC3)nc12 (single isomer, unassigned) [Compound 5]
3. CC(Oc1ccccc1)c1cc(C(=O)N(C)C)cc2ncc(N3CCOCC3)nc12 (centres unmarked) [Compound 151]

[0.002, 0.002, 0.008]
